Source of measurements: patent US20260151494A1

# Measurement Target: T1, human CD71 extracellular domain (human, UniProt P02786 89-760)
# T1 construct: also called hCD71; CD71-ECD
# T1 sequence (P02786 89-760): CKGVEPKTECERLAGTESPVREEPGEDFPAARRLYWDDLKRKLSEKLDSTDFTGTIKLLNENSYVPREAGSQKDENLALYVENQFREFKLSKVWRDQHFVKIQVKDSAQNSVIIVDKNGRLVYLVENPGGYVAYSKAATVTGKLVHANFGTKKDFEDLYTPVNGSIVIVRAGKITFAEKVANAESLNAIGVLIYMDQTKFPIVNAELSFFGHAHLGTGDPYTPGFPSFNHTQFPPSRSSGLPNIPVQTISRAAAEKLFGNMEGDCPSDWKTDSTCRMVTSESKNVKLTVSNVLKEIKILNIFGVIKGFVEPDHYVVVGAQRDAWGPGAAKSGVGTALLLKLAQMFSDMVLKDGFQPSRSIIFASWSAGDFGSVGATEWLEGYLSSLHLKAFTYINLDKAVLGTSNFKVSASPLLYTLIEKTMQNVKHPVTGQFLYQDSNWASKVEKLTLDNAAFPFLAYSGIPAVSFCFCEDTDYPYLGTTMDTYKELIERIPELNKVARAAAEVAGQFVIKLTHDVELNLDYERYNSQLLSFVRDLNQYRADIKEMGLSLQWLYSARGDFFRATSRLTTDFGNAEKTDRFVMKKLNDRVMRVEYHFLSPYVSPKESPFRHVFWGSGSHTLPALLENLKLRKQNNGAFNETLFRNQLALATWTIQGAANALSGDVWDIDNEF
# Procedure Details: primary ELISA; further: test concentration or dose not given here
Property Measured: RLU (RLU)

(1) CD71-binding FN3 domain SEQ ID NO 441 (designed binder) MLPAPKNLVVSRVTEDSARLSWTAPDAAFDSFFIGYLEPQPPGEAILLWVPGSERSYDLTGLKPGTEYNVTIQGVKGGFPSDPLIANFTT
(2) CD71-binding FN3 domain SEQ ID NO 356 (designed binder) MLPAPKNLVVSRITEDSARLSWTAPDAAFDSFFIGYLEPQPPGEAITLLVPASERSYDLTGLKPGTEYNVTIQGVKGGFPSHPLQAQFTT
## Input Please let me know which one, 1 or 2 , has a lower measured RLU value. # reply format: chosen label
## Output 2
